# System: BDF1 mice, P388 leukemia ip, median survival T/C
# assay.comment: NCI In Vivo Anticancer Drug Screen. Data for tumor model P388 Leukemia (intraperitoneal) in B6D2F1 (BDF1) mice
# experimental.parameters: endpoint: median survival time; dose: 100.0 mg/kg/injection; schedule: Q04DX003 (ip); vehicle: Klucel (hydroxypropylcellulose) (HPC); higher = longer survival
Inconclusive results and toxic doses are left out.
The entries below come with measured T/C values attached.
measurement.type: T/C

CCOC(=O)C(C(=O)OCC)=C(C)C    100 % of control
Cc1cc(C)c(CCc2cc(C)c(C)cc2C)cc1C    91 % of control
OCc1cc2ccccc2cc1O    90 % of control
